- Organism: Homo sapiens
- Test Summary: The human serum protein binding activity was determined
- Format: functional
Observed Property: Free (%)
Write down the numeric answer in % and omit the unit.

Suppose we examine the compound COc1ccccc1C(CNCC(C)(C)S)NCC(C)(C)S (centres undefined) ; what Free value has been reported?
23.4

Suppose we examine the compound CC(C)(S)CNCC(CN)NCC(C)(C)S.Cl.Cl.Cl (centres undefined) ; what Free value has been reported?
46.2

Suppose we examine the compound CC(C)(S)CNCC(NCC(C)(C)S)c1ccccc1O (centres undefined) ; what Free value has been reported?
14.7

Suppose we examine the compound CC(C)(S)CNCC(CO)NCC(C)(C)S.Cl.Cl (centres undefined) ; what Free value has been reported?
42.5
